Value type: melting point

The following molecules have reported results that may help.
>>> df
                            compound_string           test_result
0  COC(=O)COc1cc(C)nn2c(Cc3ccccc3-c3ccc(F)cc3)c(C)c(C(=O)C(N)=O)c12         194 to 196 °C
1  CCc1c(C(=O)C(N)=O)c2c(OCC(=O)O)cc(C3CCCC3)nn2c1Cc1ccccc1  250 to 252 °C (dec.)

Problem: Supply measured melting point of CCc1c(C(=O)C(N)=O)c2c(OCC(=O)OCc3ccccc3)cc(CN3CCN(C)CC3)nn2c1Cc1ccccc1 in your reply.
Solution: 202 to 203 °C

Problem: Give the measured melting point for COC(=O)COc1cc(-c2ccccc2)nn2c(Cc3ccccc3)c(C)c(C(=O)C(N)=O)c12
Solution: 251 to 252 °C

Problem: Return melting point (reported value) for this molecule: CCc1c(C(=O)C(N)=O)c2c(OCC(=O)OC)cc(C)nn2c1Cc1ccc(F)cc1
Solution: 252 to 254 °C

Problem: Complete the entry with melting point for CCc1c(C(=O)C(N)=O)c2c(OCC(=O)OC)cc(-c3ccccc3)nn2c1Cc1ccccc1
Solution: 236 to 239 °C

Problem: Please indicate melting point recorded for CCc1c(C(=O)C(N)=O)c2c(OCC(=O)OCc3ccccc3)cc(CN=[N+]=[N-])nn2c1Cc1ccccc1
Solution: 178 to 179 °C

Problem: Assign melting point to the following record: CCc1c(C(=O)C(N)=O)c2c(OCC(=O)O)cc(C)nn2c1Cc1ccccc1-c1ccccc1
Solution: 218 to 219 °C (dec.)

Problem: Write down melting point measured for item CCc1c(C(=O)C(N)=O)c2c(OCC(=O)O)cc(CN3CCOCC3)nn2c1Cc1ccccc1
Solution: 167 to 168 °C

Problem: Query melting point for CCc1c(C(=O)C(N)=O)c2c(OCC(=O)O)cc(CN3CCCC3)nn2c1Cc1ccccc1
Solution: 228 to 231 °C (dec.)

Problem: Please give measured melting point of the following entry: COC(=O)COc1cc(C)nn2c(Cc3ccc(-c4ccccc4)cc3)c(C)c(C(=O)C(N)=O)c12
Solution: 234 to 236 °C

Problem: Hello, please tell me recorded melting point for this one: CCc1c(C(=O)C(N)=O)c2c(OCC(=O)OCc3ccccc3)cc(CN3CCCC3)nn2c1Cc1ccccc1
Solution: 185 to 186 °C

----------
Target: recombinant human secretory phospholipase A2 (Homo sapiens, UniProt P14555)
Sequence (P14555 21-144): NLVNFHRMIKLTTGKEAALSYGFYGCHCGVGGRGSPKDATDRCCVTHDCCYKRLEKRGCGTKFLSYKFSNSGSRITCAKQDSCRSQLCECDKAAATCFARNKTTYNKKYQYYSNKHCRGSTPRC
Assay: Inhibition test of human secretory phospholipase A2 (chromogenic assay, 96 well microtiterplate)
Settings: sPLA2 50 ng/well, 40° C., 30 minutes, OD 405 nm, substrate 1,2-bis(heptanoylthio)-1,2-dideoxy-sn-glycero-3-phospholylcholine
Value type: IC50 (nM)

A = CCc1c(C(=O)C(N)=O)c2c(OCC(=O)OC)cc(-c3ccc(F)cc3)nn2c1Cc1ccccc1
B = CCc1c(C(=O)C(N)=O)c2c(OCC(=O)O)cc(C)nn2c1Cc1ccccc1-c1ccccc1
C = COCc1cc(OCC(=O)O)c2c(C(=O)C(N)=O)c(C)c(Cc3ccccc3)n2n1
Problem: Task field, ranking: reported IC50, descending order. Would you mind listing the labels in the order requested?
Solution: A, C, B

----------
Value type: melting point

Worked cases, answers included:
                                   molecule    test_result
0  COCc1cc(OCC(=O)O)c2c(C(=O)C(N)=O)c(C)c(Cc3ccccc3)n2n1 [Compound I-74]  197 to 198 °C
1  CCc1c(C(=O)C(N)=O)c2c(OCC(=O)O)cc(COc3ccc(OC)cc3)nn2c1Cc1ccccc1 [Compound I-76]  218 to 219 °C

Next, consider the following molecule.
Problem: Query melting point for CCc1c(C(=O)C(N)=O)c2c(OCC(=O)OC)cc(CSc3ccccc3)nn2c1Cc1ccccc1 [Compound I-27]
Solution: 189 to 192 °C
